src = paper PMC10610214

# Experimental protocol: in vitro
# Type: in vitro ADME, SD rats
# Details: pH 7.4; SD rat liver microsomes
# Experimental: The incubation was terminated at different time points by adding 0.5 mL of ice-cold CH3CN. A parallel incubation was performed in the absence of a NADPH-regenerating system with microsomes as the negative control, and the reactions were terminated after the corresponding time incubation. After centrifugation with 12,500 rpm at 4 °C for 10 min, the supernatant was directly analyzed by the HPLC UV systems (Agilent HPLC 1200 instrument). Three independent experiments were performed in triplicate.
Measurement kind: half-life at 100 μM (min)
Answers are plain numbers, in min.

[in] Return the recorded half-life at 100 μM value; entry: `O=C1c2cc(NS(=O)(=O)c3ccccc3F)ccc2-n2c1nc1ccccc1c2=O`
[out] 108

###

For each record, write down the corresponding Cell Viability (% of Control).
# Tested on: PC12 cells
# Experimental protocol: Cytotoxicity in PC12 cells (MTT)
# Assay type: cell-based
# Details: compound 50 μM

[in] Item `CC(C)c1cc(C(C)C)c(S(=O)(=O)Nc2ccc3nc4n(c(=O)c3c2)-c2ccccc2C4=O)c(C(C)C)c1` : provide Cell Viability (% of Control)
[out] 98.7 ± 2.6 % of Control

[in] Specify Cell Viability (% of Control) for `CC(C)(C)c1ccc(S(=O)(=O)Nc2ccc3nc4n(c(=O)c3c2)-c2ccccc2C4=O)cc1` and stop.
[out] 96.7 ± 1.9 % of Control

Below are some molecules; for each one, tell me its Cell Viability (% of Control).
1. O=C1c2ccccc2-n2c1nc1ccc(NS(=O)(=O)c3c(Cl)cccc3Cl)cc1c2=O
2. CC(=O)Nc1ccc(S(=O)(=O)Nc2ccc3nc4n(c(=O)c3c2)-c2ccccc2C4=O)cc1
3. O=C1c2ccccc2-n2c1nc1ccc(NS(=O)(=O)c3ccccc3)cc1c2=O
4. O=C1c2cc(NS(=O)(=O)c3cccc(F)c3)ccc2-n2c1nc1ccccc1c2=O
5. Cc1ccc(S(=O)(=O)Nc2ccc3nc4n(c(=O)c3c2)-c2ccccc2C4=O)cc1
6. CC(C)(C)c1ccc(S(=O)(=O)Nc2ccc3c(c2)C(=O)c2nc4ccccc4c(=O)n2-3)cc1

[out]
98.2 ± 1.7 % of Control
99.4 ± 1.3 % of Control
99.8 ± 1.7 % of Control
99.7 ± 0.8 % of Control
99.8 ± 2.4 % of Control
98.2 ± 1.7 % of Control

// each listed molecule needs a value for Cell Viability (% of Control)
1. COc1ccc(S(=O)(=O)Nc2ccc3c(c2)C(=O)c2nc4ccccc4c(=O)n2-3)cc1OC
2. CC(C)c1cc(C(C)C)c(S(=O)(=O)Nc2ccc3c(c2)C(=O)c2nc4ccccc4c(=O)n2-3)c(C(C)C)c1
3. O=C1c2ccccc2-n2c1nc1ccc(NS(=O)(=O)c3ccc(Br)cc3)cc1c2=O
4. CC(=O)Nc1ccc(S(=O)(=O)Nc2ccc3c(c2)C(=O)c2nc4ccccc4c(=O)n2-3)cc1
5. O=c1c(O)c(-c2ccc(O)c(O)c2)oc2cc(O)cc(O)c12 [Quercetin, reference compound]
6. O=C1c2cc(NS(=O)(=O)c3ccccc3C(F)(F)F)ccc2-n2c1nc1ccccc1c2=O

[out]
1: 98.2 ± 3.4 % of Control; 2: 97.3 ± 3.6 % of Control; 3: 99.7 ± 3.1 % of Control; 4: 98.3 ± 3.0 % of Control; 5: 99.5 ± 1.3 % of Control; 6: 98.2 ± 1.7 % of Control

###

# Tested target: BuChE (Equus caballus, UniProt P81908)
# Construct: BuChE (from equine serum)
# Sequence (P81908 whole entry): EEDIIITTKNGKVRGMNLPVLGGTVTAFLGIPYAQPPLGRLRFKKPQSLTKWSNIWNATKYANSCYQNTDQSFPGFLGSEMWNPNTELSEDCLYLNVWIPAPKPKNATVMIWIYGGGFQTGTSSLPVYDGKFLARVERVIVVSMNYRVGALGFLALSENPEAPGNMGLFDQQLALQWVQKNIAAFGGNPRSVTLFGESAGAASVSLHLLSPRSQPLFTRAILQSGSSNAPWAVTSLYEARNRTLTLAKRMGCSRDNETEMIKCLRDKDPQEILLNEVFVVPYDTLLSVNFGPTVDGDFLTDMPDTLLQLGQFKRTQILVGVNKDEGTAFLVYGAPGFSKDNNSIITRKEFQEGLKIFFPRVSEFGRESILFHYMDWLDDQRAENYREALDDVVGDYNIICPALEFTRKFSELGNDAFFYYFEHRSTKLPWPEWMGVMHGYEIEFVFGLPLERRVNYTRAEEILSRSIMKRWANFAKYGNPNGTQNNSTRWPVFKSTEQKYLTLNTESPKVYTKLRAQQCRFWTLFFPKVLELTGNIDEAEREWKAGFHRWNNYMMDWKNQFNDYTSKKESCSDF
# Experimental protocol: Kinetic study of BuChE inhibition (Lineweaver–Burk)
# Details: Lineweaver–Burk secondary plot
Measurement kind: Ki (µM)
Numbers only, in µM.

[in] In one line, give reported Ki of the entry O=C1c2cc(NS(=O)(=O)c3ccccc3F)ccc2-n2c1nc1ccccc1c2=O [4h] .
[out] 5.33

###

Quick record of log10(IC50) values for AChE (from electric eel) (Electrophorus electricus).
// stored as log10 of IC50 expressed in µM

[in] Output log10(IC50) of `O=C1c2cc(NS(=O)(=O)c3cccc(F)c3)ccc2-n2c1nc1ccccc1c2=O`
[out] 0.51

[in] Give the measured log10(IC50) for `O=C1c2cc(NS(=O)(=O)c3ccccc3C(F)(F)F)ccc2-n2c1nc1ccccc1c2=O`
[out] 0.39

Quick one: give me log10(IC50) for each item below, same order please.
1. COc1ccc(S(=O)(=O)Nc2ccc3c(c2)C(=O)c2nc4ccccc4c(=O)n2-3)c(OC)c1
2. CC(C)(C)c1ccc(S(=O)(=O)Nc2ccc3nc4n(c(=O)c3c2)-c2ccccc2C4=O)cc1
3. O=C1c2ccccc2-n2c1nc1ccc(NS(=O)(=O)c3ccc(F)cc3)cc1c2=O
4. O=C1c2ccccc2-n2c1nc1ccc(NS(=O)(=O)c3ccccc3)cc1c2=O
5. O=C1c2ccccc2-n2c1nc1ccc(NS(=O)(=O)c3ccccc3C(F)(F)F)cc1c2=O
6. Cc1ccc(S(=O)(=O)Nc2ccc3c(c2)C(=O)c2nc4ccccc4c(=O)n2-3)cc1
7. CC(C)(C)c1ccc(S(=O)(=O)Nc2ccc3c(c2)C(=O)c2nc4ccccc4c(=O)n2-3)cc1
8. O=C1c2cc(NS(=O)(=O)c3ccccc3)ccc2-n2c1nc1ccccc1c2=O

[out]
1. 1.27
2. 1.20
3. 1.63
4. 1.15
5. 0.95
6. 0.76
7. 0.41
8. -0.01

[in] Entry `O=C1c2ccccc2-n2c1nc1ccc(NS(=O)(=O)c3ccccc3OC(F)(F)F)cc1c2=O` needs its log10(IC50) filled in; supply it.
[out] 1.62

###

# Tested target: AChE (from electric eel) (Electrophorus electricus, UniProt O42275)
# Sequence (O42275 24-633): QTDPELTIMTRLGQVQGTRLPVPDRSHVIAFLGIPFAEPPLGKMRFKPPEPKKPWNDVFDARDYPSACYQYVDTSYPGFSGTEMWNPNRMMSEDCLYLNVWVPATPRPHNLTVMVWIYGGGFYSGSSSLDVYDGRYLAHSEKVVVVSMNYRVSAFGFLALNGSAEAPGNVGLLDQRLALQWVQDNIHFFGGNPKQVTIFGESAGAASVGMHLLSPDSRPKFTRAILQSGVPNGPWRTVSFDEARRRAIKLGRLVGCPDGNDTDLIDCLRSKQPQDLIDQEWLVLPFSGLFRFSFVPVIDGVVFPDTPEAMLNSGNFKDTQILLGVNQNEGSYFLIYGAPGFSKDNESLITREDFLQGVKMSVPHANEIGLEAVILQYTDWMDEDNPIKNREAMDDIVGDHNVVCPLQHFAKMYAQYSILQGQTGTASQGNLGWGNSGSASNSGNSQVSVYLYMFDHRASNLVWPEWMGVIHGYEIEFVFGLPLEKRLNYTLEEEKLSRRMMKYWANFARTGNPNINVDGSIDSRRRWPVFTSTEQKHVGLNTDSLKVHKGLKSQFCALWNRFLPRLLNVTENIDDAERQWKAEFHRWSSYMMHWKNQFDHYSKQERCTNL
Friendly reminder: IC50 below 6 µM is MET, at or above is NOT MET.

[in] Find out if reported IC50 for O=C1c2ccccc2-n2c1nc1ccc(NS(=O)(=O)c3ccc(Br)cc3)cc1c2=O [8e] is less than 6 µM
[out] NOT MET

[in] Given CC(=O)Nc1ccc(S(=O)(=O)Nc2ccc3nc4n(c(=O)c3c2)-c2ccccc2C4=O)cc1 [8i] , is recorded IC50 strictly lower than 6 µM?
[out] NOT MET

[in] Dear colleague, could you confirm whether IC50 of O=C1c2cc(NS(=O)(=O)c3c(Cl)cccc3Cl)ccc2-n2c1nc1ccccc1c2=O [4p] falls below 6 µM? Thanks.
[out] MET

###

# Tested target: BuChE (from equine serum) (Equus caballus, UniProt P81908)
# Construct: BuChE (from equine serum)
# Sequence (P81908 whole entry): as the sequence (P81908 whole entry) above
# Experimental protocol: biochemical
# Details: mean ± SD of three experiments, read-out: BuChE Inhibition (IC50)
pIC50: −log10 of the molar value.
Assignment: determine reported pIC50 for the given compounds.

[in] Assign pIC50 to the following record: `CC(C)(C)c1ccc(S(=O)(=O)Nc2ccc3nc4n(c(=O)c3c2)-c2ccccc2C4=O)cc1`
[out] < 4.30

Below are some compounds; for each one, tell me its pIC50.
1. CC(C)(C)c1ccc(S(=O)(=O)Nc2ccc3c(c2)C(=O)c2nc4ccccc4c(=O)n2-3)cc1
2. O=C1c2ccccc2-n2c1nc1ccc(NS(=O)(=O)c3ccccc3F)cc1c2=O
3. O=C1c2ccccc2-n2c1nc1ccc(NS(=O)(=O)c3c(Cl)cccc3Cl)cc1c2=O

[out]
5.09
< 4.30
< 4.30

Look at each compound and report its pIC50.
1. O=C1c2cc(NS(=O)(=O)c3ccccc3C(F)(F)F)ccc2-n2c1nc1ccccc1c2=O
2. O=C1c2ccccc2-n2c1nc1ccc(NS(=O)(=O)c3ccc(F)cc3)cc1c2=O
3. CC(C)c1cc(C(C)C)c(S(=O)(=O)Nc2ccc3c(c2)C(=O)c2nc4ccccc4c(=O)n2-3)c(C(C)C)c1
4. O=C1c2cc(NS(=O)(=O)c3ccccc3OC(F)(F)F)ccc2-n2c1nc1ccccc1c2=O

[out]
1. 5.06
2. < 4.30
3. < 4.30
4. 5.31

###

# Tested on: H2O2-induced PC12 cells
# Experimental protocol: Neuroprotection against H2O2-induced PC12 cell injury (MTT)
# Type: cell-based
# Details: compound 10 μM, H2O2 250 μM, mean ± SEM
Consider the following compounds; for each one, report its H2O2-Induced PC12 Cell Viability (% of Control).

Observe how each entry below is paired with its result.
[in] Return H2O2-Induced PC12 Cell Viability (% of Control) for the following compound: O=c1c(O)c(-c2ccc(O)c(O)c2)oc2cc(O)cc(O)c12 [Quercetin, reference compound]
[out] 55.21 ± 1.6 % of Control

[in] Give the value of H2O2-Induced PC12 Cell Viability (% of Control) reported for the following: `CC(C)(C)c1ccc(S(=O)(=O)Nc2ccc3c(c2)C(=O)c2nc4ccccc4c(=O)n2-3)cc1`
[out] 45.59 ± 0.7 % of Control

[in] Answer with reported H2O2-Induced PC12 Cell Viability (% of Control) of `O=C1c2ccccc2-n2c1nc1ccc(NS(=O)(=O)c3cccc(F)c3)cc1c2=O`
[out] 44.37 ± 0.5 % of Control

I would be grateful if you could provide H2O2-Induced PC12 Cell Viability (% of Control) for each of the following entries.
1. O=C1c2ccccc2-n2c1nc1ccc(NS(=O)(=O)c3ccccc3F)cc1c2=O
2. O=C1c2cc(NS(=O)(=O)c3ccccc3C(F)(F)F)ccc2-n2c1nc1ccccc1c2=O

[out]
36.03 ± 3.0 % of Control
42.32 ± 0.7 % of Control

Provide each entry's H2O2-Induced PC12 Cell Viability (% of Control) from the list below.
1. O=C1c2ccccc2-n2c1nc1ccc(NS(=O)(=O)c3ccccc3)cc1c2=O
2. O=C1c2ccccc2-n2c1nc1ccc(NS(=O)(=O)c3ccccc3OC(F)(F)F)cc1c2=O

[out]
1: 39.65 ± 3.1 % of Control; 2: 38.94 ± 1.5 % of Control
